# measurement-description: NCI Yeast Anticancer Drug Screen. Data for the rad50 strain (AID 155)
# test-context: S. cerevisiae rad50 strain growth inhibition; at 50.0 µM (retest, dose inferred, filed as 5.0)
The panel holds about 79,000 compounds, 15% with a hit somewhere; the sample as a whole holds those more often. The source made the active and inactive calls. Rule as the data show it: active = growth inhibition above about 70%; inactive = the rest.
Would you mind answering with one of these outcomes? true for active, false for inactive

compound	assigned-class
O=[N+]([O-])c1c(Cl)nc2ccccn12	false

What did this assay record as the result for CCOC(=O)c1c[nH]c2c([N+](=O)[O-])cc(OC)cc2c1=O ?
false

Can you look up the reported call for COc1ccc(NC(=O)C(=O)NO)c(OC)c1 for me?
true

How was Cc1c(N)nc(C(CC(N)=O)NCC(N)C(N)=O)nc1C(=O)NC(C(=O)NC(C)C(O)C(C)C(=O)NC(C(=O)NCCc1nc(-c2nc(C(=O)NCCCNCCCCN)cs2)cs1)C(C)O)C(OC1OC(CO)C(O)C(O)C1OC1OC(CO)C(O)C(OC(N)=O)C1O)c1cnc[nH]1 (stereo unspecified) classified in this test?
true

# outcome recorded in this test, key = O=C(O)CSCc1ccc(Cl)cc1
false

Lab log entry: O=S(=O)(c1ccc(F)cc1)c1ccc(F)cc1 — outcome as called in the assay?
false

For O=c1cc[nH]c2ccccc12 , which call appears in the assay record?
true

Look up the recorded call for CC(=O)Nc1nc(N)c2ncn(C3OC(C(O)CO)C(O)C3O)c2n1 (stereo unspecified) in this test.
false

Tell me the assay call for Fc1ccc2nc3ccccc3nc2c1 please.
false

Call for entry O=Cc1cc([N+](=O)[O-])cc(CCl)c1O :
false

How was NNc1c2ccccc2nc2ccccc12 classified in this test?
true

# credit: PubChem BioAssay (NCI)
